molecular target: PDE4B1 (Homo sapiens); construct: made in house; host or cells: SF21 insect cells (baculovirus; virus prepared in SF9 cells); assay: Inhibition of PDE4B1 activity (SPA, [3H]cAMP); type: biochemical; conditions: recombinant PDE4B1, 0.5 μM cAMP; binned: below 8 / between 8 and 9; read-out: PDE4B1 inhibitory values measured as −logIC50 (converted)
For each record, write down the corresponding IC50.

Which measured IC50 belongs to CCOc1cc2c(cc1OC)C(c1ccc(C(=O)N3CCC(n4c(=O)c5sc(-c6cc(OC)ccc6OC)cc5n(Cc5ccc(OC)c(F)c5)c4=O)CC3)cc1)=N[C@@H]1CCSC[C@H]21 , tested on PDE4B1 (Homo sapiens)? 1 to 10 nM

Which measured IC50 belongs to CCOc1cc2c(cc1OC)C(c1ccc(C(=O)N3CCC(n4c(=O)c5sc(-c6ccc(F)cc6OC)cc5n(Cc5cc(F)c(OC)c(F)c5)c4=O)CC3)cc1)=N[C@@H]1CCSC[C@H]21 , tested on PDE4B1 (Homo sapiens)? > 10 nM

Which measured IC50 belongs to CCOc1cc2c(cc1OC)C(c1cccc(C(=O)N3CCC(n4c(=O)c5sc(-c6ccc7c(c6)OCO7)cc5n(Cc5ccc(OC)c(F)c5)c4=O)CC3)c1)=N[C@@H]1CCSC[C@H]21 , tested on PDE4B1 (Homo sapiens)? > 10 nM

---

target: human PDE5 (Homo sapiens, UniProt O76074); construct: from tissue; host or cells: human platelets from fresh donor blood (platelet lysate); assay: Inhibition of PDE5 activity (SPA, [3H]cGMP, platelet lysate); type: biochemical; settings: 0.5 μM cGMP, binned: below 8 / between 8 and 9, read-out: PDE5 inhibitory values measured as −logIC50 (converted)
Readout type: IC50

// IC50 lookup, key: CCOc1cc2c(cc1OC)C(c1ccc(C(=O)N3CCC(n4c(=O)c5sc(-c6ccccc6)cc5n(Cc5cc(F)c(OC)c(F)c5)c4=O)CC3)cc1)=N[C@@H]1CCSC[C@H]21 [Example 3] 1 to 10 nM

// IC50 lookup, key: CCOc1cc2c(cc1OC)C(c1ccc(C(=O)N3CCC(n4c(=O)c5sc(-c6cc(F)ccc6OC)cc5n(Cc5ccc(OC)c(F)c5)c4=O)CC3)cc1)=N[C@@H]1CCSC[C@H]21 [Example 10] 1 to 10 nM

// IC50 lookup, key: CCOc1cc2c(cc1OC)C(c1ccc(C(=O)N3CCC(n4c(=O)c5sc(-c6ccccc6OC)cc5n(Cc5ccc(OC)c(F)c5)c4=O)CC3)cc1)=N[C@@H]1CCSC[C@H]21 [Example 19] 1 to 10 nM

// IC50 lookup, key: CCOc1cc2c(cc1OC)C(c1ccc(C(=O)N3CCC(n4c(=O)c5sc(-c6ccccc6)cc5n(Cc5ccc(C)c(F)c5)c4=O)CC3)cc1)=N[C@@H]1CCSC[C@H]21 [Example 6] 1 to 10 nM

// IC50 lookup, key: CCOc1cc2c(cc1OC)C(c1ccc(C(=O)N3CCC(n4c(=O)c5sc(-c6ccccc6F)cc5n(Cc5ccc(OC)c(F)c5)c4=O)CC3)cc1)=N[C@@H]1CCSC[C@H]21 [Example 12] 1 to 10 nM

---

target: PDE4B1 (Homo sapiens, UniProt Q07343); construct: made in house; host or cells: SF21 insect cells (baculovirus; virus prepared in SF9 cells); experiment: Inhibition of PDE4B1 activity (SPA, [3H]cAMP); type: biochemical; settings: recombinant PDE4B1, 0.5 μM cAMP; binned: below 8 / between 8 and 9; read-out: PDE4B1 inhibitory values measured as −logIC50 (converted)
Sequence (Q07343 whole entry): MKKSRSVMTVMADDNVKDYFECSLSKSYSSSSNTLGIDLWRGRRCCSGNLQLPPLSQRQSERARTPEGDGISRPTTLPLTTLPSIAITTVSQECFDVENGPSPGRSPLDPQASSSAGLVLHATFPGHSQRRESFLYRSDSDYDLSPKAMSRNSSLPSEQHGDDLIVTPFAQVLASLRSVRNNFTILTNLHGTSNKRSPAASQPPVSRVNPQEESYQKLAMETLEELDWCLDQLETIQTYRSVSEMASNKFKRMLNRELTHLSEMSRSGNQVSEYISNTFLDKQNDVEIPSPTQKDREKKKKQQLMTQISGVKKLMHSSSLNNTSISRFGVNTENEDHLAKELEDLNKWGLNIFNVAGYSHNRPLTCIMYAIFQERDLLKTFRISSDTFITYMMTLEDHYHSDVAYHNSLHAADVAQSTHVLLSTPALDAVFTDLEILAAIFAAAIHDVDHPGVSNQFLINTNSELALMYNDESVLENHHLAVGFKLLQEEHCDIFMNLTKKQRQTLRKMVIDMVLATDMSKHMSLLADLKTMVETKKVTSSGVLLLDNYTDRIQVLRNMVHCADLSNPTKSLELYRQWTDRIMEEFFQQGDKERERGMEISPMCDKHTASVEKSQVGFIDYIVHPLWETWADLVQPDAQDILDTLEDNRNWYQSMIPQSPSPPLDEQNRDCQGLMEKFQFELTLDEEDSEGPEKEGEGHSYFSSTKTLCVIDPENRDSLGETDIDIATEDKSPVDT
Readout type: IC50

Which measured IC50 belongs to CCOc1cc2c(cc1OC)C(c1ccc(C(=O)N3CCC(n4c(=O)c5sc(-c6ccc7c(c6)OCO7)cc5n(Cc5ccc(OC)c(F)c5)c4=O)CC3)cc1)=N[C@@H]1CCSC[C@H]21 , tested on PDE4B1 (Homo sapiens, UniProt Q07343)? 0.001 to 0.01 µM

Which measured IC50 belongs to CCOc1cc2c(cc1OC)C(c1ccc(C(=O)N3CCC(n4c(=O)c5sc(-c6ccccc6F)cc5n(Cc5ccc(OC)c(F)c5)c4=O)CC3)cc1)=N[C@@H]1CCSC[C@H]21 , tested on PDE4B1 (Homo sapiens, UniProt Q07343)? 0.001 to 0.01 µM

Which measured IC50 belongs to CCOc1cc2c(cc1OC)C(c1ccc(C(=O)N3CCC(n4c(=O)c5sc(-c6ccccc6)cc5n(Cc5ccc(C)c(F)c5)c4=O)CC3)cc1)=N[C@@H]1CCSC[C@H]21 , tested on PDE4B1 (Homo sapiens, UniProt Q07343)? > 0.01 µM
